Hi! I'm sharing some IC50 results obtained with AChE from electric eel (Electrophorus electricus).
Sequence (O42275 24-633): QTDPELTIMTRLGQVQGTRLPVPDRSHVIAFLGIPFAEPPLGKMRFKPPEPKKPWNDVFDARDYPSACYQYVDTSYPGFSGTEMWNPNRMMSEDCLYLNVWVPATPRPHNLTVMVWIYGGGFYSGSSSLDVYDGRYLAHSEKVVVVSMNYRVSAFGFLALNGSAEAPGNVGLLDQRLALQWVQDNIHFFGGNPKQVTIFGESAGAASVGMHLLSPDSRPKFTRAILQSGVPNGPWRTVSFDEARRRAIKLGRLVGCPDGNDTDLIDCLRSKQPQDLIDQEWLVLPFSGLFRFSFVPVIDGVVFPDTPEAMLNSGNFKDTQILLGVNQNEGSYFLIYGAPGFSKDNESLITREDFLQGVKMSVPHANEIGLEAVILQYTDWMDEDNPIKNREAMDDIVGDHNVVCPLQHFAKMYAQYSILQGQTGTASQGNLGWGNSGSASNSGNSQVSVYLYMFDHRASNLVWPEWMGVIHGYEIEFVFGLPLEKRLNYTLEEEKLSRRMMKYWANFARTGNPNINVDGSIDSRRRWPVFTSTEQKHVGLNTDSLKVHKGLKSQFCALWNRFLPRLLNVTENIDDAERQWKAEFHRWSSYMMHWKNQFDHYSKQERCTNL
One number for each entry, in µM.

Check out these entries, answers already filled in.
Qu. # input compound: CCN(C(=O)OCc1ccccc1)C(C)C(=O)c1ccccc1 (stereo not drawn) ; wanted: its IC50
Ans. 158

Qu. Similarly, Cc1ccc(C(=O)C(C)N(C)C(=O)OCc2ccccc2)cc1 (stereo not drawn) ?
Ans. 40.1

Qu. Can you check CCC(C(=O)c1ccccc1)N(CC)C(=O)OCc1ccccc1 (stereo not drawn) next?
Ans. 119

Qu. Same for CCC(C(=O)c1ccccc1)N(CC)C(=O)Oc1ccccc1 (stereo not drawn)
Ans. 95.7

Qu. Next: COC(=O)N(C)C(C)C(=O)c1cccc(C)c1 (stereo not drawn)
Ans. 134

Qu. Also need CCCC(C(=O)c1ccccc1)N(C)C(=O)Oc1ccccc1 (stereo not drawn) , thanks.
Ans. 98

Qu. Input Cc1ccc(C(=O)C(C)N(C)C(=O)OCc2ccccc2)cc1C (stereo not drawn)
Ans. 76.8

Qu. Entry CC(C(=O)c1ccc(Br)c2ccccc12)N(C)C(=O)Oc1ccccc1 (stereo not drawn) please
Ans. 61.7

Qu. Same read-out for COC(=O)N(C)C(C)C(=O)c1ccc(OC)cc1 (stereo not drawn) ?
Ans. 147

Qu. Here is the next compound: Cc1cccc(C(=O)C(C)N(C)C(=O)OCc2ccccc2)c1 (stereo not drawn)
Ans. 83.3

# per-item lookup of IC50; items listed below
1. COC(=O)N(C)C(C)C(=O)c1ccc(Br)cc1 (stereo not drawn)
2. CCN(C(=O)Oc1ccccc1)C(C)C(=O)c1ccccc1 (stereo not drawn)
3. CC(C(=O)c1ccc(Br)cc1)N(C)C(=O)Oc1ccccc1 (stereo not drawn)
4. CCC(C(=O)c1ccccc1)N(C)C(=O)Oc1ccccc1 (stereo not drawn)
5. CC(C(=O)c1ccc(Cl)c2ccccc12)N(C)C(=O)Oc1ccccc1 (stereo not drawn)

Ans.
283
167
51.5
179
30.6

###

test-target: BChE from equine serum (Equus caballus)
Construct: BChE (from equine serum)
measurement-description: In vitro BChE inhibition, modified Ellman's method
Give IC50 for every item shown.
Numbers only, in µM.

Give IC50 for each listed item.
1. CCC(C(=O)c1ccccc1)N(C)C(=O)Oc1ccccc1 (stereo not drawn)
2. CCN(C(=O)Oc1ccccc1)C(C)C(=O)c1ccccc1 (stereo not drawn)

Ans.
1: 53; 2: 27.6

Quick request: IC50 for each listed item, please.
1. Cc1cccc(C(=O)C(C)N(C)C(=O)Oc2ccccc2)c1 (stereo not drawn)
2. COC(=O)N(C)C(C)C(=O)c1ccc(C)cc1 (stereo not drawn)
3. CC(C(=O)c1cccc2ccccc12)N(C)C(=O)Oc1ccccc1 (stereo not drawn)
4. CC(C(=O)c1ccc(Cl)cc1)N(C)C(=O)OCc1ccccc1 (stereo not drawn)
5. CC(C(=O)c1ccc(Br)c2ccccc12)N(C)C(=O)OCc1ccccc1 (stereo not drawn)

Ans.
1. 48.3
2. 181
3. 12.7
4. 7.02
5. 236

Go through the list and state IC50 for each entry.
1. Cc1ccc(C(=O)C(C)N(C)C(=O)OCc2ccccc2)cc1 (stereo not drawn)
2. CC(C(=O)c1cccc2ccccc12)N(C)C(=O)OCc1ccccc1 (stereo not drawn)

Ans.
26.4
18.9

// each compound listed below needs its IC50
1. CCC(C(=O)c1ccccc1)N(CC)C(=O)OCc1ccccc1 (stereo not drawn)
2. Cc1ccc(C(=O)C(C)N(C)C(=O)Oc2ccccc2)cc1 (stereo not drawn)
3. CC(C(=O)c1ccc2c(c1)OCO2)N(C)C(=O)OCc1ccccc1 (stereo not drawn)
4. CCN(C(=O)OCc1ccccc1)C(C)C(=O)c1ccccc1 (stereo not drawn)
5. COC(=O)N(C)C(C)C(=O)c1cccc(C)c1 (stereo not drawn)
6. COC(=O)N(C)C(C)C(=O)c1cccc2ccccc12 (stereo not drawn)

Ans.
1. 21.3
2. 87.6
3. 51.9
4. 11.4
5. 116
6. 150

Please supply IC50 for each of the following items, keeping them in order.
1. CCCC(C(=O)c1ccccc1)N(C)C(=O)Oc1ccccc1 (stereo not drawn)
2. COC(=O)N(C)C(C)C(=O)c1ccc(Cl)cc1 (stereo not drawn)
3. CC(C(=O)c1ccc(Cl)c2ccccc12)N(C)C(=O)OCc1ccccc1 (stereo not drawn)
4. COC(=O)N(C)C(C)C(=O)c1ccc2c(c1)OCO2 (stereo not drawn)

Ans.
1: 16.6; 2: 132; 3: 42.8; 4: 195

For the 2 compounds below, give their IC50 values.
1. CC(C(=O)c1ccc(Cl)cc1)N(C)C(=O)Oc1ccccc1 (stereo not drawn)
2. COc1ccc(C(=O)C(C)N(C)C(=O)OCc2ccccc2)cc1 (stereo not drawn)

Ans.
1: 39; 2: 57.4

###

test-target: BChE from equine serum (Equus caballus, UniProt P81908)
Construct: BChE (from equine serum); purchased Sigma, St. Louis, MO, USA; host or cells: equine serum
Sequence (P81908 whole entry): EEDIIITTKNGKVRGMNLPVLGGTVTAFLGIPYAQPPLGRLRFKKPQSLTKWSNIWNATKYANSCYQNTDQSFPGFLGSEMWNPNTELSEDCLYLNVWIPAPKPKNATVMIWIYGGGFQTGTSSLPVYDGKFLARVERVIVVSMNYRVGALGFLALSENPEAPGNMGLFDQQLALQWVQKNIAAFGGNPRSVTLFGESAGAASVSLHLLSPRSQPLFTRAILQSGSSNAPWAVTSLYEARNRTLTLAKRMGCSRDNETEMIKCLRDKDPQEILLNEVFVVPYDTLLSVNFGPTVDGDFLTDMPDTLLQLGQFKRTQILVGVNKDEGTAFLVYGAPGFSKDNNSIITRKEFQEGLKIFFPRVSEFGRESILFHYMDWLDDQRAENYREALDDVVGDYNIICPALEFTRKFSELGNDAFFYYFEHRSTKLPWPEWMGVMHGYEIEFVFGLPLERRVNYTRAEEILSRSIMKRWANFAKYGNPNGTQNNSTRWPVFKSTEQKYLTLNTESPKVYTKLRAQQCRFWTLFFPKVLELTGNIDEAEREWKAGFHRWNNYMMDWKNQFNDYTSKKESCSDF
measurement-description: In vitro BChE inhibition, modified Ellman's method
Assay type: biochemical
recorded-conditions: higher value = higher selectivity to BChE
Answer each item with its documented SI (index selectivity) = IC50 (AChE)/IC50 (BChE).
One number for each entry.

Qu. Need SI (index selectivity) = IC50 (AChE)/IC50 (BChE), item CC(C(=O)c1ccc2c(c1)OCO2)N(C)C(=O)OCc1ccccc1 (centres unmarked)
Ans. 1.46

Qu. What do we get for CC(C(=O)c1ccc(Br)cc1)N(C)C(=O)OCc1ccccc1 (centres unmarked) ?
Ans. 2.84

Qu. Note, next up: CCC(C(=O)c1ccccc1)N(CC)C(=O)Oc1ccccc1 (centres unmarked)
Ans. 6.13

Qu. Same again, this time with CC(C(=O)c1ccc(Cl)c2ccccc12)N(C)C(=O)Oc1ccccc1 (centres unmarked)
Ans. 2.26

Please examine the following record next.
Qu. Request the reported SI (index selectivity) = IC50 (AChE)/IC50 (BChE) associated with COC(=O)N(C)C(C)C(=O)c1ccc(Br)cc1 (centres unmarked)
Ans. 1.26
